# protocol: soluble fraction after stress (log2 fold change); higher = more stays soluble; pooled small domains, quantitative proteomics
# cond: stress: 50 degC
Binning scheme for soluble fraction (log2): small value: < -0.4; mid value: ≥ -0.4 and < 0.02; large value: ≥ 0.02

HMAQQEMEIIPLRHRQVEQVMPTLRPLLEPGAALSGMNNQLILRASRKNREEIKQALAVIDT: large value

Form: Item = HMIFEEDILKEFRGSLIFITHDRRFLDNIATRIIELDRGKLLSFPGNFSAYKKAKNEQLANEAVENA ; Class = ? small value

How about HMITSELALVKLVVKGANRVEALRVAETFRARALDVTLSSFVFELTGKPSKLDAFIGLMRSLGDTEILKR ? small value

Next entry: HMVSSEGLASGIERMLVEFGLETDKGRRFAMWSLLYMLGSAPDLDVAFKDPRDREAARTFMDLLDQANA small value

Try this sequence next: HMGSYVVQLGAFAIRANAEKLAREVDGSIATSGRFSLVRVGPFTSRGQAEQALAKLRARGYSDALIHSL mid value

Would you kindly repeat that for HMAEEFESMTEARRLELARLVDSRGFVRVTDAAEELGVSDVTIRGDLSELERRGLLTRVHGGAMPVT ? large value

Cool, now HMRSDHVFTSHLARRDKYISELESLSDSARDDHIQTIKEEDEYLLKYRRTRNLFGIPLNDEMKQFEPFNY mid value

Ok, now HMGPDTVDRTRRFKWVDNEVVVNFGKNAGRTLRDLAENDPGFLRWIVRSDFSDEVRTIANDALMGKFPTRK mid value

---

Could you please report measured soluble fraction (log2) for the items listed next?
# protocol: soluble fraction after stress (log2 fold change); higher = more stays soluble; pooled small domains, quantitative proteomics
# cond: stress: 50 degC
One number for each entry.

Examples with answers:
HMLWTDTKYVTVPDFVGKEPKEIESSYLYNIEYHGEGTKVISQQPAAFSRTIEGGTVRLYLG: 0.0884
HMPSALGDKIRAARKALKLSLEDLAEKVSSSKSYMWELENRDEPNPGADLLMRIAAALNVTTEHLLGP: -0.0736
HMLSNKIEQLRKEKGYTFAKLSELSGISTGRLSDLATGKRNNPTMDTLIKLADALDVTLDELVGR: 0.14

So what's the measured soluble fraction (log2) for this one? HMDSIDVQQKKLLTDIELGNIEGIKLFLKRHNNTINFLTIKGFHPLVYAVRNNNMEIVNLFLTT 0.172

---

# protocol: soluble fraction after stress (log2 fold change); higher = more stays soluble; pooled small domains, quantitative proteomics
# cond: stress: 50 degC
measurement.label: soluble fraction (log2)

Below, each entry is followed by its recorded soluble fraction (log2) result.
HMAPEVTVHDGSIVVRGHVGGVTVYDESGRQIASVQSRGAVAIPVPAGHTYLYIVKPEGKPAIKVRAAH: 0.0927
HMEVVRVEPGATVRDLGEALGVPPTRIIQILMGLGEMKTVTQTLSTEEIELVAEELGRRVEV: 0.135

Can you give me soluble fraction (log2) for all of these, one by one?
1. HMLPSMENWLGELSFWQTPWWERRDFSTFDNIAQSKEELDEFMSRDDNGAILERMQDPINTIEAE
2. HMGVSAGQVRGLIRNLIAGEDKSKPLSDLALERELEKREIRISRRTVAKYRAELGIPNSDQRRYLP
3. HMAIELIDLIKNPETAPFSKLKYLKWMPEAEVTGFFNNLFQLNVTARETGDWSTVDKFLEDEGDRIAAQVA
4. HMGKEDLTAAIKKMTLNDKLDIHKIVANFQTNDSEEVITAVKWLMENNYLLKIKNNYTWNTKEK

-0.46
-0.642
-0.138
-0.263

State recorded soluble fraction (log2) for all listed sequences.
1. HMGQVGIPFSDFLAEVENGQVREVVIKGNDISGTFNDNRGFSTYAPNDPNLVEKLTKRGVVINAQPTE
2. HMIGERIKRARAAAGLSMQALGKQVGISANMVKKYEHDQSMPSSGVLLKLATALSVRTEYFFRPA
3. HMGQARQSAIRELGNDPTSGKKITVRSGRYGPYVTDGEVNASLRKGDDPQTIDLDRAIELLAARREKLG
4. HMSFMPDPSIHDAITYTVRSGDYLGKISTTFGVKVSDLQKWNSIKSNIIYPGQKLTVWVSSNKRESLQ
5. HMPQLEDLEPLDSSGMVRRDGPHLVLAVGRHRGRHLEEVRDSDPSYLHWLLSPKGIEDIQAKEDIKTYLNL
6. HMSPAETGIYHILVENGKPNRHGLDATNKNENWLRQFLITQNTRLEDVFLLLADDGGGIRFFKSQ
7. HMDDPWHNLANAIVAVAADDYRSALRNEDEGLLKSLELFFHSEWYRILTDVDADRLLGMLRRERS
8. HMALWFDEWKKYQDTIASADLLPDKAERDALIAQAEDRFNYWMDIYPRSASLNHSFDDLYEEHRRKIE

1: 0.0645; 2: -1.28; 3: 0.13; 4: -1.31; 5: 0.0519; 6: -0.498; 7: -1.62; 8: -0.75

I need soluble fraction (log2) for every entry listed below, if you could help.
1. HMDGQPLSERQQEILRWVAEGLSNREIGERLNITPNTVRDHLSEVMRRLEVSNRTSAVSTAFHLGLLP
2. HMSPAPVSVDHLAFPTRDLEATDHFYSKVVGATLVHAESGYSPSWKSDYLLITYALPDGTRLSFFDWP

[-0.115, 0.0261]

---

# protocol: soluble fraction after stress (log2 fold change); higher = more stays soluble; pooled small domains, quantitative proteomics
# cond: stress: 50 degC
For each record, write down the corresponding soluble fraction (log2).
Numbers only.

Example entries begin here.
HMDVIDDAQAMEIALEDAGLSMDDLDRYELELHTKRSELVYSIELKSGTEEYEYDLRAADGTILKRDTDF: -0.168
HMDPTIRRGELIDAASRLFLSKGYAATSVRDILDEVGNRTASPSVFYYYFKSKEEIYQAVLRRHSE: -0.847
HMKVRDTQYIIEAAISKNVIRKSKNIYYYGTDIIGRSLEDAIASLNDKKNQDIKMTILQEIES: -0.493
HMPDPHSEARNIVLNQLNFMPRSRKELETALAKRNIEADVAKIVLDRFEEIGMVDDAAYAEL: 0.159
HMGSIMIIVLKENAPQQAAEKLMKEIRAKGLQIDVSKGTRKTVLGLVGDTSVIDMEHVQGYDYVDKVLRV: 0.0715

Field: next sequence
# input sequence: HMEDGEALARAVASLPGKYREVLFLKYSHGYSVDEIALILSMSKENVKKTIQRARKKLEQLLESE ; wanted: its soluble fraction (log2) -0.898

---

# protocol: soluble fraction after stress (log2 fold change); higher = more stays soluble; pooled small domains, quantitative proteomics
# cond: stress: 50 degC
# if value of soluble fraction (log2) reaches -0.05, tag rule met; if it stays below, tag rule not met

Answered cases to consult:
HMERPEVVAYRLAYASAESLRPALGLVASPSDLEIDERTNTLIVRAVPSVQERVAELVASLDI: rule not met
HMTYIQSNLKFLRNKMNISQEELAKRLFVTHQTVSNHENGKSQPNFEMIEKYASFFNVPFEDLIHKDLSL: rule met
HMGGRTITVGISENMTVKDIAQMLEEKGLIEDARLFVVQELLSAYHKEIKPGIYDLSTDMTAAQMLEIMS: rule not met

# next sequence below
Item HMDDILAYEIEDKEDLENLSLGKSIGINLNKLIKPTLNSFDNSLLFLSKKGNIISYGKLNGDLFKPKKVL with soluble fraction (log2) of -0.05 or above? rule met

---

# protocol: soluble fraction after stress (log2 fold change); higher = more stays soluble; pooled small domains, quantitative proteomics
# cond: stress: 50 degC
Task for the reader: assign each of the following sequences its reported soluble fraction (log2).

# return soluble fraction (log2) for each item in the list
1. HMIFDPTTLPEKQLLVYGIISSHPGLNAKQISEMLTLKKSSIETAIKGLRKKEIIEYEGTTRNGG
2. HMGEKVIAVSGGFDPIHVGHLRMMQDAAQHGRLVVIVNSDEWLLKKKGYVFMPWEERAELIGAYDFVDE
3. HMEIGNVIAKLRVSNGLNQREFAKKLEVSNGAVAMWETNKRQPDLEMIKKISNLFDVPTDYILGAGTFQ
4. HMKKPAERRKELVDAAAHLFAEKGYENTSVRDILDAVGGAPGMFYYYFKSKQDIYVAVMEDF
5. HMKDRDISNAVLNILSKDSDHNYNYKQIASVLGVKDPFVRKRIVSVLAQLTKNGQLEEISRGKYQIKN
6. HMAPRLTERERQVLQLIAEGLTSMQIGDRLHIAASTVDVHRRNLMRKLDLHNVADLTRYAITQGISP
7. HMTNYNTEKIIPEEQAGKRLDVVLANIFPEFSRSRLKNWIIDGFILVDGKVLRPRDFVTGGELVSIDVIV
8. HMDPNFKYIIRIANSDVSGEQKLAYALTSIRGIGERTSNAIIQKLGLDSTQLAGKLTDKNVEDIESA

-0.182
-0.977
-0.458
-3.54
-0.618
-0.0624
-0.1
-0.027
